Exercise: for every item that follows, state its recorded pEC50.
tested on: HIV-IIIb IN T174I DE; test: Antiviral assay in MT4 cells, HIV-IIIb IN T174I DE virus (from dose escalation passaging); assay type: cell-based, HIV-1; settings: Human immunodeficiency virus 1, IIIB, MT4, 120 h, read-out: T174I DE EC50, MT4 cells, HIV-IIIb IN T174I DE (dose escalation), 5 days, CellTiter-Glo
Worth noting: pEC50 values are minus log10 of concentrations stated in mol/L.

Q: pEC50 lookup needed for Cc1cc2nc(-c3ccc4c(c3)c(N3CCN(C5(C)COC5)CC3)nn4C)sc2c(-c2ccc(Cl)cc2)c1[C@H](OC(C)(C)C)C(=O)O , thanks.
A: 6.16

Q: Query Cc1cc2nc(-c3ccc4c(c3)c(N3CCC(N5CCC5)CC3)nn4C)sc2c(-c2ccc(Cl)cc2)c1[C@H](OC(C)(C)C)C(=O)O next
A: 5.77

Q: Query Cc1cc2nc(-c3ccc4c(c3)c(N3CC[C@@H](N(C)C)C3)nn4C)sc2c(-c2ccc(Cl)cc2)c1[C@H](OC(C)(C)C)C(=O)O next
A: 5.71

Q: Query CC(=O)N1CC(N2CCC(c3nn(C(F)F)c4ccc(-c5nc6cc(C)c([C@H](OC(C)(C)C)C(=O)O)c(-c7ccc(Cl)cc7)c6s5)nc34)CC2)C1 next
A: 7.16

Reference for the values: patent US10800772B2
